The reported numbers originate from paper PMC4733660.

system-name: JMJD2E (Homo sapiens)
Sequence (B2RXH2 whole entry): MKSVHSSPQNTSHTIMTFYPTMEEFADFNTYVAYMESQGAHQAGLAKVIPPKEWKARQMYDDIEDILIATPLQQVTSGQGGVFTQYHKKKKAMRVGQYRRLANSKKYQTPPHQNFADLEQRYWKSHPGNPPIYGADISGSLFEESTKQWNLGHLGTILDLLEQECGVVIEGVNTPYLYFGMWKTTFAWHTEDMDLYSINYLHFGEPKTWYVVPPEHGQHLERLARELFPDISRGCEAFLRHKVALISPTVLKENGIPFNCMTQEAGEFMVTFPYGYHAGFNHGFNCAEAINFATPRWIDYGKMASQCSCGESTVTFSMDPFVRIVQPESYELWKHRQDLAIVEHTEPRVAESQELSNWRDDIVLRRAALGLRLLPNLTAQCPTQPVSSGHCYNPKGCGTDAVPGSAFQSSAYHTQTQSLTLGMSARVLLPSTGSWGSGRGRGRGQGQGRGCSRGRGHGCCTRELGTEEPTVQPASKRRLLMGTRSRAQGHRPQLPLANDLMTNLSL
protocol: FDH-coupled spectrophotometric turnover assay of JMJD2E
Assay type: biochemical
settings: FDH-coupled assay; enzyme concentration 400 nM; 200 μM compound concentration
quantity: JMJD2E Residual Activity (%)

compound: O=C(O)c1ccnc(C(=O)O)c1 [Compound 5, 2,4-pyridine dicarboxylic acid, reference compound]
JMJD2E Residual Activity (%): 0

[I] O=C(O)c1ccnc(C(=O)O)c1Nc1ccccc1
[II] O=C(O)c1ccnc(C(=O)O)c1Oc1ccccc1
[III] O=C(O)c1ccnc(C(=O)O)c1/C=C/c1ccccc1
[IV] O=C(O)c1ccnc(C(=O)O)c1-c1ccccc1
Task item: Rank the items in ascending order with respect to JMJD2E Residual Activity (%). // format: requested-order list of labels
Reply: I, III, II, IV
